B1: TPR t1 (parent)
chain: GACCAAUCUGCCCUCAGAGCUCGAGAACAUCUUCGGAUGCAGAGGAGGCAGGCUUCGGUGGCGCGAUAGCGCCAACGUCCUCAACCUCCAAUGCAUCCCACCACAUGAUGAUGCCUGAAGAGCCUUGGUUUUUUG

- Variants of: B1
- protocolDetails: polymerase ribozyme fitness, log enrichment relative to wild type (log ratio); higher = more active; in vitro selection for triplet polymerase activity
Categories are assigned from the measured polymerase ribozyme fitness (log ratio) using these intervals: 1 (below -3), 2 (-3 to below -2), 3 (-2 or more)

mutationCode	qualitativeLabel
G61C C123A	3
G57A U59C G120C U132A	3

Consider C20U C62A C104U A119U C123A G128U . To which polymerase ribozyme fitness (log ratio) class does it belong?
2

For A2C C4A A108G , which polymerase ribozyme fitness (log ratio) bin applies?
1

Record G60U A74U G110U G127A — which class?
1

Just checking, what class would you give A27G U106G U112G here?
3

Which bin should I file C8U C15U G36A A68G C97U G120A under?
3

Hi there! Could you help me figure out the category for C12G A41G C72U C102U please?
2

Please let me know in which category the item G36U U54G G69A belongs.
1

Hello team, could you let me know which band the following variant falls into: U9C G42C C53A U55C U130G
3

Entry G10A G44U belongs to which category?
3

Band of G77U G113A ?
3

Sort C62G U132A into one of the categories.
3

Textbook exercise: identify the category of the variant given here, C56A C79G G93A , according to its measured value.
2

Which class is correct for the following variant? C12A A83U
3

State the band of U9A A29U G36C G44U C72A A84G
1

Pick a category. Item: G25U A26G
1

Class label required: C4U C56A U130C
3

Form field 'band' for C3U C11A
3

Values were extracted from the RNAGym collection of RNA variant scans (doi:10.1073/pnas.2313332121).
